# tgt: CCK receptor sites (Mus musculus, UniProt P56481)
# Construct: from tissue; host or cells: cerebral cortex membranes of male CFLP mice
# Sequence (P56481 whole entry): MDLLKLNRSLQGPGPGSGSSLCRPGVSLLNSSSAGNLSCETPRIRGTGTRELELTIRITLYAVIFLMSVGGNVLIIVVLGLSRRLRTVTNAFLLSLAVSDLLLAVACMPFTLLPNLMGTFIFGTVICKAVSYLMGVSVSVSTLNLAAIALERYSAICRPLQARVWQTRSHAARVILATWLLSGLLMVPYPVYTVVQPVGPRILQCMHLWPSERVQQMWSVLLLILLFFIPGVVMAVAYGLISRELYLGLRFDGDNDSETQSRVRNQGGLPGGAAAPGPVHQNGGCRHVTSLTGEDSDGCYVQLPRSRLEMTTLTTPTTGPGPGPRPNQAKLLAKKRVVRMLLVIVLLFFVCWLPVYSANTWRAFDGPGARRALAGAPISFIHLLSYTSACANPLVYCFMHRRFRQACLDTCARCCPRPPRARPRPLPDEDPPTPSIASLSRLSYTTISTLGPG
# procedureText: CCK receptor binding, displacement of tritiated pentagastrin from mouse cerebral cortex membranes
# reportedConditions: 2 nM tritiated pentagastrin, mouse cerebral cortical membranes; Ki from IC50 by Cheng-Prusoff; read-out: Ki
readout: Ki (nM)
Kindly answer with a numeric value in nM, unit omitted.

>  <molecule>
CC(Cc1csc2ccccc12)(NC(=O)OC1C2CC3CC(C2)CC1C3)C(=O)N[C@H](CO)Cc1ccccc1 (stereo partly shown) [drawing 47 (H H CH2 OH H H)]

>  <quantityUnit>
nM

>  <Ki>
455

$$$$
>  <molecule>
CC(Cc1cc2c(cn1)[nH]c1ccccc12)(NC(=O)OC1C2CC3CC(C2)CC1C3)C(=O)NCCc1ccccc1 (stereo not shown)

>  <quantityUnit>
nM

>  <Ki>
2170

$$$$
>  <molecule>
CC(Cc1ccnc2ccccc12)(NC(=O)OC1C2CC3CC(C2)CC1C3)C(=O)NCC(NC(=O)CCC(=O)O)c1ccccc1 (stereo not shown)

>  <quantityUnit>
nM

>  <Ki>
88

$$$$
>  <molecule>
CC(Cc1ccncc1)(NC(=O)OC1C2CC3CC(C2)CC1C3)C(=O)NCCc1ccccc1 (stereo not shown)

>  <quantityUnit>
nM

>  <Ki>
3000

$$$$
>  <molecule>
CN1c2ccccc2C(c2ccccc2)=NCC1CC(C)(NC(=O)OC1C2CC3CC(C2)CC1C3)C(=O)NCCc1ccccc1 (stereo not shown) [drawing 64 (Diast I)]

>  <quantityUnit>
nM

>  <Ki>
760

$$$$
>  <molecule>
CC(Cc1coc2ccccc12)(NC(=O)OC1C2CC3CC(C2)CC1C3)C(=O)NCCc1ccccc1 (stereo not shown) [drawing 27 (H H H H H)]

>  <quantityUnit>
nM

>  <Ki>
990

$$$$

Attention now turns to another entry.
Ki measured on CC(Cc1ncc2ccccn12)(NC(=O)OC1C2CC3CC(C2)CC1C3)C(=O)NCCc1ccccc1 (stereo not shown) [drawing 57 (H H H H H)] = 930

Data origin, for the record: patent US5331006A
